assay overview: Metabolic stability test (human)
Format: in vitro ADME
condition parameters: human liver microsomes, 37° C., 30 minutes, NADPH
observable: Amount of compound remained, Human (%)

>>> df
                                   compound  obs_value
0  C[C@@H](CO[C@H]1CC[C@H](Oc2nc3c(F)cc(OC4CC4)cc3n2C)CC1)NC(N)=O [Compound I-12]       83.3
1  CC(=O)N[C@@H](CF)CO[C@H]1CC[C@H](Oc2nc3c(F)cc(OC4CC4)cc3n2C)CC1 [Compound I-4]       93.4
2  Cn1c(O[C@H]2CC[C@H](OC[C@H](CF)NC(N)=O)CC2)nc2c(F)cc(OC3CC3)cc21 [Compound I-5]       98.9
3  CC(=O)N[C@H](C)C(F)(F)C[C@H]1CC[C@H](Oc2nc3c(F)cc(OCC(F)F)c(F)c3n2C)CO1 [Compound I-7]       89.1

====

assay overview: Metabolic stability test (rat)
Type: in vitro ADME
observable: Amount of compound remained, Rat (%)

In [3]: df
Out[3]:
                               input_smiles  obs_value
0  C[C@@H](CO[C@H]1CC[C@H](Oc2nc3c(Cl)cc(OC4CC4)cc3n2C)CC1)NC(N)=O       85.4
1  Cn1c(O[C@H]2CC[C@H](OC[C@H](CF)NC(N)=O)CC2)nc2c(F)cc(OC3CC3)cc21       83.4
2  CC(=O)N[C@H](C)C(F)(F)C[C@H]1CC[C@H](Oc2nc3c(F)cc(OCC(F)F)c(F)c3n2C)CO1       74.7
3  CC(=O)N[C@@H](C)CC[C@H]1OC[C@H](Oc2nc3c(F)cc(OC4CC4)cc3n2C)CO1         87

Every entry's value here was drawn from patent US12521375B2.
